In this section, each of the molecules is paired with its reported EC50.
target: UniProt P23945; test: FSH assay: cAMP response element luciferase reporter in CHO cells expressing recombinant FSH receptor; conditions: agonist activity; CHO cells stably transfected with recombinant FSH receptor; luciferase luminescence; log-dose-response curves; incubation 37° C. for 3 hrs 30 min; read-out: ED50 (the source's name)
Sequence (P23945 18-695): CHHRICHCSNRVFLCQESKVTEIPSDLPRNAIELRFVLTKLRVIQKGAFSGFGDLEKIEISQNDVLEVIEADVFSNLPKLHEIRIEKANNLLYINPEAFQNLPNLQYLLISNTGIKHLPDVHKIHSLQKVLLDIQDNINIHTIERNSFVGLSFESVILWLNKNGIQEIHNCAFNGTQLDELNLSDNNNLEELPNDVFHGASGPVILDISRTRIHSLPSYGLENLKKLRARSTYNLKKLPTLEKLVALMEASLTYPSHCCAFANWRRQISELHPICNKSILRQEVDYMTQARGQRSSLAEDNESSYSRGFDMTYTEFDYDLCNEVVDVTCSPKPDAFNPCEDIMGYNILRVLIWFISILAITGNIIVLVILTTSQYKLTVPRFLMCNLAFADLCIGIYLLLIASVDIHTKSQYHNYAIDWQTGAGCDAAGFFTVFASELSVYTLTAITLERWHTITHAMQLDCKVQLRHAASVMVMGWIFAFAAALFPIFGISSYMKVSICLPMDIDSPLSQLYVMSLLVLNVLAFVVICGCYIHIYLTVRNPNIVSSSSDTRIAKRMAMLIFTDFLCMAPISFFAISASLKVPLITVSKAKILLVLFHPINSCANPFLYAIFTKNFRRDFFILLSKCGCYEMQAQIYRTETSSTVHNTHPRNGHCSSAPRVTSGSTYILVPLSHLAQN
measurementLabel: EC50

[[record]]
givensmiles = "CCn1c2ccccc2c2cc(NC(=O)[C@@H]3CN(CCCSC)CCN3S(=O)(=O)c3cccs3)ccc21"
measurementlabel = "EC50"
result = "1700 nM"

[[record]]
givensmiles = "CCCCCNC(=O)N1CCN(S(=O)(=O)c2cccs2)[C@H](C(=O)Nc2ccc3c(c2)c2ccccc2n3CC)C1"
measurementlabel = "EC50"
result = "63 nM"

[[record]]
givensmiles = "CCCCCNC(=O)N1CCN(S(=O)(=O)c2cn(C)cn2)[C@H](C(=O)Nc2ccc3c(c2)c2ccccc2n3CC)C1"
measurementlabel = "EC50"
result = "3160 nM"

[[record]]
givensmiles = "CCn1c2ccccc2c2cc(NC(=O)[C@@H]3CN(C(=O)NCCCn4ccnc4)CCN3S(=O)(=O)c3cccs3)ccc21"
measurementlabel = "EC50"
result = "6470 nM"

[[record]]
givensmiles = "CCc1cocc1CN1CCN(S(=O)(=O)c2cccs2)[C@H](C(=O)Nc2ccc3c(c2)c2ccccc2n3CC)C1"
measurementlabel = "EC50"
result = "1600 nM"

[[record]]
givensmiles = "CCn1c2ccccc2c2cc(NC(=O)[C@@H]3CN(C(=O)NCCOC)CCN3S(=O)(=O)c3cccs3)ccc21"
measurementlabel = "EC50"
result = "1610 nM"

[[record]]
givensmiles = "CCCCCCN1CCN(S(=O)(=O)c2cccs2)[C@H](C(=O)Nc2ccc3c(c2)nc(-c2ccncc2)n3CC)C1"
measurementlabel = "EC50"
result = "111 nM"

[[record]]
givensmiles = "CCCCCNC(=O)N1CCN(S(=O)(=O)N(C)C)[C@H](C(=O)Nc2ccc3c(c2)c2ccccc2n3CC)C1"
measurementlabel = "EC50"
result = "403 nM"

[[record]]
givensmiles = "CCCCCCN1CCN(S(=O)(=O)c2ccccc2)[C@H](C(=O)Nc2ccc3c(c2)nc(-c2cccnc2)n3CC)C1"
measurementlabel = "EC50"
result = "150 nM"

[[record]]
givensmiles = "CCCCCN1CCN(S(=O)(=O)c2cccs2)[C@H](C(=O)Nc2ccc3c(c2)nc(-c2cccnc2)n3CC)C1"
measurementlabel = "EC50"
result = "150 nM"

[[record]]
givensmiles = "CCCCCCCN1CCN(S(=O)(=O)c2cccs2)[C@H](C(=O)Nc2ccc3c(c2)nc(-c2cccnc2)n3CC)C1"
measurementlabel = "EC50"
result = "94 nM"

[[record]]
givensmiles = "CCCCCCN1CCN(S(=O)(=O)c2ccc(F)cc2)[C@H](C(=O)Nc2ccc3c(c2)nc(-c2cccnc2)n3CC)C1"
measurementlabel = "EC50"
result = "167 nM"

[[record]]
givensmiles = "CCOC(=O)CN1CCN(S(=O)(=O)c2cccs2)[C@H](C(=O)Nc2ccc3c(c2)c2ccccc2n3CC)C1"
measurementlabel = "EC50"
result = "610 nM"

[[record]]
givensmiles = "CCn1c(-c2ccncc2)nc2cc(NC(=O)[C@@H]3CN(CCCSC)CCN3S(=O)(=O)c3cccs3)ccc21"
measurementlabel = "EC50"
result = "14000 nM"

[[record]]
givensmiles = "CCCCCCN1CCN(S(=O)(=O)c2cccs2)[C@H](C(=O)Nc2ccc3c(c2)nc(-c2cccnc2)n3CC)C1"
measurementlabel = "EC50"
result = "40 nM"

[[record]]
givensmiles = "CCCCCCCCN1CCN(S(=O)(=O)c2cccs2)[C@H](C(=O)Nc2ccc3c(c2)nc(-c2ccncc2)n3CC)C1"
measurementlabel = "EC50"
result = "54 nM"

